Target: 3-phosphoinositide-dependent protein kinase 1 (Homo sapiens, UniProt O15530)
Sequence (O15530 whole entry): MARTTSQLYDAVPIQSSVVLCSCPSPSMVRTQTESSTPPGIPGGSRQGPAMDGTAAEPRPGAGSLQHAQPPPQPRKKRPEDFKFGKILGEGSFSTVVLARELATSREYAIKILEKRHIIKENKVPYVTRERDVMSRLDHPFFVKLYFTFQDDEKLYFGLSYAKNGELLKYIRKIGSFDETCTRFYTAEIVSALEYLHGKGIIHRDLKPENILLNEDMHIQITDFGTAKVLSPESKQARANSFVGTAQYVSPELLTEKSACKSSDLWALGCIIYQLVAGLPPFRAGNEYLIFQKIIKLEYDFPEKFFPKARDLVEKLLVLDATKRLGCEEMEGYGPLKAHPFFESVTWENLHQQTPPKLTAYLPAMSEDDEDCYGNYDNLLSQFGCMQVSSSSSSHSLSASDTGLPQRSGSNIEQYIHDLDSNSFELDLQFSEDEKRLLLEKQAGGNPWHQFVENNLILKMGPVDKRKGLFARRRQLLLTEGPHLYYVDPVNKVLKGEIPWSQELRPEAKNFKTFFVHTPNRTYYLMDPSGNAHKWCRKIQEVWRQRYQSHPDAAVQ
endpoint name: IC50 (nM)

[A] COc1cc2ncc3c(N)nc4c(C)c(Cl)ccc4c3c2cc1OC
[B] COc1cc2c(cc1OCCN1CCOCC1)ncc1c(N)nc3c(C)c(N)ccc3c12
[C] COc1cc2ncc3cnc4ccccc4c3c2cc1OC
Ranking criterion: IC50, increasing numeric value. Items: as listed above. As an answer, provide the labels arranged in the order called for.
B, A, C
